Measured pIC50 accompanies every entry in the list below.
- measurement target: mutEGFR (D770_N771insSVD) (Homo sapiens, UniProt P00533, INS767SVD)
- Sequence (P00533 with tags, fused parts or gaps INS767SVD limits assumed): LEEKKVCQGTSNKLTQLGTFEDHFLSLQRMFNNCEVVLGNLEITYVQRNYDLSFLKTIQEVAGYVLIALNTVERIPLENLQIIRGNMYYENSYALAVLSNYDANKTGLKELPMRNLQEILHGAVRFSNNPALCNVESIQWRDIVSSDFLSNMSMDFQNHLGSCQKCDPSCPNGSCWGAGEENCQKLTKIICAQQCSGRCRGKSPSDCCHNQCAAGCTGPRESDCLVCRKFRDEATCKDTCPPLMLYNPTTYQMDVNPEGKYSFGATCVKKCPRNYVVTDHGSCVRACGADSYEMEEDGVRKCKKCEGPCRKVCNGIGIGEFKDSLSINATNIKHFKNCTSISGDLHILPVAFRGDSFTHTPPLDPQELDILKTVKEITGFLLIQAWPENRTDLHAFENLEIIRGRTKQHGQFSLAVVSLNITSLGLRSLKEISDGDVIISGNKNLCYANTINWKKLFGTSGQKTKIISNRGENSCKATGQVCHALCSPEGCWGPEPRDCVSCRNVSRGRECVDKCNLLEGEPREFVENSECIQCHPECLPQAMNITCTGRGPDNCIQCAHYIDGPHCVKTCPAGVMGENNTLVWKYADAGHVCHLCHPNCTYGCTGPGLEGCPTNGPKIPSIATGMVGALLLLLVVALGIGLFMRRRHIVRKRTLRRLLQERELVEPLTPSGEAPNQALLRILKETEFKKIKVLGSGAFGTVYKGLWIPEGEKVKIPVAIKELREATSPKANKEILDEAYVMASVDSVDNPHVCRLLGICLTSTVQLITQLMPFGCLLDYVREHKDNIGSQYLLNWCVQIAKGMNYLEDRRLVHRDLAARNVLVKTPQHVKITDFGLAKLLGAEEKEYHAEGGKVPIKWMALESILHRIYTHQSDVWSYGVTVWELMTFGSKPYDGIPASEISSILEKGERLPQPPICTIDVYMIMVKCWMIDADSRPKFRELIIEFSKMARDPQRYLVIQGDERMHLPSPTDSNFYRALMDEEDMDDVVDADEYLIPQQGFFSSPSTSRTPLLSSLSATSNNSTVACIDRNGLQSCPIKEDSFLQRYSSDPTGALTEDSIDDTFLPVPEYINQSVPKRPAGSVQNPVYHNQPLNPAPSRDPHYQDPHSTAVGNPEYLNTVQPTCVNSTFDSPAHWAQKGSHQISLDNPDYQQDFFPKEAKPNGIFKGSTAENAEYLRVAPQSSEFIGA
- experiment notes: Exon20-mutant-EGFR (D770_N771insSVD) TR-FRET kinase assay
- condition parameters: 2 mM ATP, 15 min preincubation
Just so you know, pIC50 here is -log10 of the concentration in molar units; reply with that number alone.

* C=CS(=O)(=O)N1CCC[C@H]1COc1cnccc1-c1[nH]c2cccnc2c1-c1cccc(Cl)c1 [Example 40] | 9.71

q: Need pIC50 of C=CC(=O)N1CCC1(C)COc1cnccc1-c1[nH]c2cccnc2c1-c1cccc(C(F)(F)F)c1 (stereo not drawn) [Example 147] , thanks.
a: 6.16

q: Need pIC50 of C=CS(=O)(=O)N1CCC[C@H]1COc1cnccc1-c1[nH]c2c(C)ccnc2c1-c1cc(Cl)ccc1F [Example 138] , thanks.
a: 9.24

q: Need pIC50 of C#CC(=O)N1CCC(Oc2cnccc2-c2[nH]c3cccnc3c2-c2ccccc2)C1 (racemic) [Example 117] , thanks.
a: 7.04

q: Need pIC50 of C=CS(=O)(=O)N(C)CCOc1cnccc1-c1[nH]c2cccnc2c1-c1ccc2cc[nH]c2c1 [Example 30] , thanks.
a: 9.29

q: Need pIC50 of C=CC(=O)N(C)CCOc1cnccc1-c1[nH]c2cccnc2c1-c1cccc(OC(F)(F)F)c1 [Example 58] , thanks.
a: 6.60

q: Need pIC50 of C=CC(=O)N1CCC[C@H]1COc1cnccc1-c1[nH]c2cccnc2c1-c1ccc(F)c(OC(F)(F)F)c1 [Example 106] , thanks.
a: 7.88

q: Need pIC50 of C=CC(=O)N(C)CCOc1cnccc1-c1[nH]c2cccnc2c1-c1ccc(Cl)c(C)c1 [Example 10] , thanks.
a: 7.14

q: Need pIC50 of C=CS(=O)(=O)N(CC)CCOc1cnccc1-c1[nH]c2cccnc2c1-c1ccccc1 [Example 33] , thanks.
a: 9.45

q: Need pIC50 of C=CC(=O)N(C)CCOc1cnccc1-c1[nH]c2cccnc2c1-c1cccc(C(C)C)c1 [Example 55] , thanks.
a: 6.93

----------
- measurement target: mutEGFR (D770_N771insNPG, T790)
- Sequence (P00533 with tags, fused parts or gaps INS770NPG limits assumed): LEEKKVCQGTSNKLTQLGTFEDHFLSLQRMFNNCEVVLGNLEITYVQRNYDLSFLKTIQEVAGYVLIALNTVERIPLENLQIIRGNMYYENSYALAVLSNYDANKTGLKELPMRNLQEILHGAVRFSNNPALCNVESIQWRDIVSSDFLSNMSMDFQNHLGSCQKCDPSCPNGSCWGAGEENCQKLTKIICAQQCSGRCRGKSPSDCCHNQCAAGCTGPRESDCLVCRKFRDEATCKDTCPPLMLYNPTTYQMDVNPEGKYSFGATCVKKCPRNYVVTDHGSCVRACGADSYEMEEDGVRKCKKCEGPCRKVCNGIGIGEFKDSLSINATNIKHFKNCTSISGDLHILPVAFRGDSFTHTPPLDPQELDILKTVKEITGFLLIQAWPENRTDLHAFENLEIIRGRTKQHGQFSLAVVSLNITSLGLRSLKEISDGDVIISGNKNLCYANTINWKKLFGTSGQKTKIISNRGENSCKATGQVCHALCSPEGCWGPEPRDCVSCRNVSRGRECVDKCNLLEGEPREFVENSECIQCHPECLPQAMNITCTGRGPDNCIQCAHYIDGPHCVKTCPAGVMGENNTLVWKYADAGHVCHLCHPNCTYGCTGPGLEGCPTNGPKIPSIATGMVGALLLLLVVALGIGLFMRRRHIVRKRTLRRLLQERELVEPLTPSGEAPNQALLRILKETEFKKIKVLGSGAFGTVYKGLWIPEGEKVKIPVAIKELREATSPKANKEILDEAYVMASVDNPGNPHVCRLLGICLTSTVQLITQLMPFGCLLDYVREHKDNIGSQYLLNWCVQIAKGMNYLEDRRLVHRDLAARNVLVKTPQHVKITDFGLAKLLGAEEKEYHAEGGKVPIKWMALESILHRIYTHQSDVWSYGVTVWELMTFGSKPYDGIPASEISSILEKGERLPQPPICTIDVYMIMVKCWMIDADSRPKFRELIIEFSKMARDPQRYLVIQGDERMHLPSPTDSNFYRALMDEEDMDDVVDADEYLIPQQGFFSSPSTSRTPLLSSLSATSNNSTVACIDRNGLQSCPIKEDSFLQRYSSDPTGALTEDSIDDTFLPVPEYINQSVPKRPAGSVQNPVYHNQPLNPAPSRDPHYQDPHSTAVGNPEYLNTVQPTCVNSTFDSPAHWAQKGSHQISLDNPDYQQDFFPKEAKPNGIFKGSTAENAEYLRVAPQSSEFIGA
- experiment notes: mutEGFR (D770_N771insNPG, T790) kinase assay
Measured pIC50 accompanies every entry in the list below.
Just so you know, pIC50 here is -log10 of the concentration in molar units; reply with that number alone.

- C=CC(=O)N1CCC[C@H]1COc1cnccc1-c1[nH]c2cccnc2c1-c1cccc(Cl)c1: 9.01
- C=CC(=O)N(C)CCOc1cnccc1-c1[nH]c2cccnc2c1-c1ccc(F)c(C)c1: 7.85
- C=CC(=O)N1CCC(Oc2cnccc2-c2[nH]c3cccnc3c2-c2cccc(C(F)(F)F)c2)C1 (racemic): 6.11

q: Need pIC50 of C=CS(=O)(=O)N1CCC[C@H]1COc1cnccc1-c1[nH]c2cccnc2c1-c1ccccc1 , thanks.
a: 9.51

q: Need pIC50 of CN(C)C/C=C/C(=O)N1CCC[C@H]1COc1cnccc1-c1[nH]c2cccnc2c1-c1ccccc1 , thanks.
a: 7.95

q: Need pIC50 of C=CS(=O)(=O)N1CC[C@@H]1COc1cnccc1-c1[nH]c2cccnc2c1-c1ccccc1 (single isomer, unassigned) , thanks.
a: 9.58

q: Need pIC50 of C=CC(=O)N(C)CCOc1cnccc1-c1[nH]c2cccnc2c1-c1ccccc1CC , thanks.
a: 6.13
